pIC50: −log10 of the molar value.
From various publications: pIC50 for Aminopeptidase N (Homo sapiens, UniProt P15144).
ENDPOINT_NAME: pIC50

[[record]]
molecule = "COC(=O)c1ccc(CNC(=O)[C@H](CC(C)C)NC(=O)[C@@H](O)[C@H](N)Cc2ccccc2)cc1.Cl"
assay_target = "Aminopeptidase N (Homo sapiens, UniProt P15144)"
modifier = "="
measured = 6.32

[[record]]
molecule = "COC(=O)[C@@H]1C[C@@H](O)CN1C(=O)/C=C/c1ccc(OC)c(OC)c1"
assay_target = "Aminopeptidase N (Homo sapiens, UniProt P15144)"
modifier = "="
measured = 4.09

[[record]]
molecule = "Cc1ccc(S(=O)(=O)N2CC3(C[C@H]2C(=O)NO)OCCCO3)cc1"
assay_target = "Aminopeptidase N (Homo sapiens, UniProt P15144)"
modifier = "="
measured = 4.21

[[record]]
molecule = "COC(=O)[C@@H]1CC2(CN1S(=O)(=O)c1ccccc1)OCCO2"
assay_target = "Aminopeptidase N (Homo sapiens, UniProt P15144)"
modifier = "="
measured = 3.82

[[record]]
molecule = "CC(C)c1ccc(N2C(=O)Cc3ccccc3C2=O)cc1"
assay_target = "Aminopeptidase N (Homo sapiens, UniProt P15144)"
modifier = "<"
measured = 3.45

[[record]]
molecule = "COC(=O)[C@@H]1CC2(CN1S(=O)(=O)c1ccccc1)OCCCCO2"
assay_target = "Aminopeptidase N (Homo sapiens, UniProt P15144)"
modifier = "="
measured = 3.87

[[record]]
molecule = "COC(=O)[C@@H]1C[C@H](N)CN1C(=O)/C=C/c1ccc(OC)c(OC)c1"
assay_target = "Aminopeptidase N (Homo sapiens, UniProt P15144)"
modifier = "="
measured = 4.15

[[record]]
molecule = "O=C(NO)[C@@H]1C[C@@H](O)CN1S(=O)(=O)c1ccccc1"
assay_target = "Aminopeptidase N (Homo sapiens, UniProt P15144)"
modifier = "="
measured = 4.47

[[record]]
molecule = "Cc1cccc(C)c1N1C(=O)Cc2ccccc2C1=O"
assay_target = "Aminopeptidase N (Homo sapiens, UniProt P15144)"
modifier = "="
measured = 3.80

[[record]]
molecule = "CCCNNC(=O)c1ccc(CNC(=O)[C@H](CC(C)C)NC(=O)[C@@H](O)[C@H](N)Cc2ccccc2)cc1.Cl"
assay_target = "Aminopeptidase N (Homo sapiens, UniProt P15144)"
modifier = "="
measured = 6.47

[[record]]
molecule = "COC(=O)[C@@H]1C[C@@H](OC(=O)c2ccc(Cl)cc2)CN1S(=O)(=O)c1ccc(C)cc1"
assay_target = "Aminopeptidase N (Homo sapiens, UniProt P15144)"
modifier = "="
measured = 4.29

[[record]]
molecule = "O=C(NO)[C@@H]1CC2(CN1S(=O)(=O)c1ccccc1)OCCCO2"
assay_target = "Aminopeptidase N (Homo sapiens, UniProt P15144)"
modifier = "="
measured = 4.08

[[record]]
molecule = "CC(C)c1cccc(C(C)C)c1N1C(=O)c2ccc([N+](=O)[O-])cc2C1=O"
assay_target = "Aminopeptidase N (Homo sapiens, UniProt P15144)"
modifier = "<"
measured = 3.55

[[record]]
molecule = "CC(C)c1cccc(C(C)C)c1N1C(=O)c2cc3ccccc3cc2C1=O"
assay_target = "Aminopeptidase N (Homo sapiens, UniProt P15144)"
modifier = "<"
measured = 3.55

[[record]]
molecule = "CC(C)[C@@H](Nc1ccc(CNC(=O)[C@@H]2SCCN2C(=O)C[C@H](N)Cc2cc(F)c(F)cc2F)cc1)C(=O)O.Cl"
assay_target = "Aminopeptidase N (Homo sapiens, UniProt P15144)"
modifier = "<"
measured = 4.00

[[record]]
molecule = "NC1CCc2ccccc2C/C1=N/O (stereo not given)"
assay_target = "Aminopeptidase N (Homo sapiens, UniProt P15144)"
modifier = "="
measured = 3.96

[[record]]
molecule = "COc1ccc(/C=C/C(=O)N2C[C@@H](NC(=O)c3cccnc3)C[C@H]2C(=O)NO)cc1OC"
assay_target = "Aminopeptidase N (Homo sapiens, UniProt P15144)"
modifier = "="
measured = 3.85

[[record]]
molecule = "Cc1ccc(C)c(N2C(=O)Cc3ccccc3C2=O)c1"
assay_target = "Aminopeptidase N (Homo sapiens, UniProt P15144)"
modifier = "="
measured = 4.22

[[record]]
molecule = "CC(C)c1cccc(C(C)C)c1N1C(=O)c2cccc([N+](=O)[O-])c2C1=O"
assay_target = "Aminopeptidase N (Homo sapiens, UniProt P15144)"
modifier = "<"
measured = 3.55

[[record]]
molecule = "COC(=O)[C@@H]1C[C@@H](OC(=O)c2ccccc2)CN1S(=O)(=O)c1ccccc1"
assay_target = "Aminopeptidase N (Homo sapiens, UniProt P15144)"
modifier = "="
measured = 4.36


###

From various publications: IC50 for Aminopeptidase N (Homo sapiens).
ENDPOINT_NAME: IC50 (µM)

[[record]]
molecule = "COC(=O)[C@@H]1C[C@@H](O)CN1C(C)=O"
endpoint_name = "IC50"
modifier = "="
measured = 38.6

[[record]]
molecule = "COC(=O)[C@@H]1C[C@@H](OC(=O)c2ccccc2)CN1S(=O)(=O)c1ccc(C)cc1"
endpoint_name = "IC50"
modifier = "="
measured = 24.8

[[record]]
molecule = "COC(=O)[C@@H]1C[C@H](NC(=O)/C=C/c2ccccc2)CN1C(C)=O"
endpoint_name = "IC50"
modifier = "="
measured = 135

[[record]]
molecule = "COC(=O)[C@@H]1C[C@@H](O)CN1S(C)(=O)=O (relative stereo)"
endpoint_name = "IC50"
modifier = "="
measured = 41.6

[[record]]
molecule = "O=C(O)Cc1cccc2c(=O)c([N+](=O)[O-])c(-c3ccccc3[N+](=O)[O-])oc12"
endpoint_name = "IC50"
modifier = "="
measured = 25

[[record]]
molecule = "COC(=O)[C@@H]1C[C@@H](OS(C)(=O)=O)CN1S(=O)(=O)c1ccc(C)cc1"
endpoint_name = "IC50"
modifier = "="
measured = 41.4

[[record]]
molecule = "COC(=O)[C@@H]1C[C@@H](OC(=O)/C=C/c2ccccc2)CN1S(=O)(=O)c1ccccc1"
endpoint_name = "IC50"
modifier = "="
measured = 135

[[record]]
molecule = "Cc1ccc(S(=O)(=O)N2CC3(C[C@H]2C(=O)NO)OCCO3)cc1"
endpoint_name = "IC50"
modifier = "="
measured = 48.5

[[record]]
molecule = "O=C(NC1(C(=O)O)CCCCC1)c1cccc2c(Br)c(-c3ccc(Cl)cc3)oc12"
endpoint_name = "IC50"
modifier = ">"
measured = 30

[[record]]
molecule = "COC(=O)[C@@H]1C[C@H](N)CN1C(C)=O"
endpoint_name = "IC50"
modifier = "="
measured = 24.1

[[record]]
molecule = "COC(=O)[C@@H]1C[C@@H](OC(=O)c2ccc(Cl)cc2)CN1S(C)(=O)=O"
endpoint_name = "IC50"
modifier = "="
measured = 47.5

[[record]]
molecule = "COc1ccccc1N1C(=O)Cc2ccccc2C1=O"
endpoint_name = "IC50"
modifier = "="
measured = 110

[[record]]
molecule = "COc1cc(C(=O)N[C@H]2C[C@@H](C(=O)O)N(C(C)=O)C2)cc(OC)c1OC"
endpoint_name = "IC50"
modifier = "="
measured = 51.4

[[record]]
molecule = "COC(=O)[C@@H]1C[C@@H](O)CN1S(=O)(=O)c1ccccc1 (relative stereo)"
endpoint_name = "IC50"
modifier = "="
measured = 53.8

[[record]]
molecule = "CCCNNC(=O)c1ccc(CNC(=O)[C@H](CC(C)C)NC(=O)[C@H](O)[C@@H](N)Cc2ccccc2)cc1"
endpoint_name = "IC50"
modifier = ">"
measured = 20

[[record]]
molecule = "COc1ccc(CCC(=O)N2C[C@@H](NC(=O)c3cccnc3)C[C@H]2C(=O)NO)cc1OC"
endpoint_name = "IC50"
modifier = "="
measured = 62.2

[[record]]
molecule = "COC(=O)[C@@H]1CC2(CN1S(=O)(=O)c1ccc(C)cc1)OCCCCO2"
endpoint_name = "IC50"
modifier = "="
measured = 124

[[record]]
molecule = "COC(=O)[C@@H]1C[C@@H](OS(=O)(=O)c2ccccc2)CN1S(=O)(=O)c1ccc(C)cc1"
endpoint_name = "IC50"
modifier = "="
measured = 74.6

[[record]]
molecule = "COC(=O)[C@@H]1C[C@@H](OC(=O)c2ccc(Cl)cc2)CN1S(=O)(=O)c1ccccc1"
endpoint_name = "IC50"
modifier = "="
measured = 36.4

[[record]]
molecule = "O=C(NO)[C@@H]1CC2(CN1S(=O)(=O)c1ccccc1)OCCO2"
endpoint_name = "IC50"
modifier = "="
measured = 57.8

[[record]]
molecule = "CC(=O)N1C[C@@H](NC(=O)c2cccnc2)C[C@H]1C(=O)NO"
endpoint_name = "IC50"
modifier = "="
measured = 29.8

[[record]]
molecule = "COC(=O)[C@@H]1C[C@@H](OS(=O)(=O)c2ccc(C)cc2)CN1S(=O)(=O)c1ccc(C)cc1"
endpoint_name = "IC50"
modifier = "="
measured = 101

[[record]]
molecule = "CC(=O)N1C[C@@H](NC(=O)/C=C/c2ccccc2)C[C@H]1C(=O)NO"
endpoint_name = "IC50"
modifier = "="
measured = 56.1

[[record]]
molecule = "CCCC[C@H](N[C@@H](CCc1ccccc1)C(=O)O)C(=O)N1C[C@@H](NC(=O)C[C@H](N)Cc2cc(F)c(F)cc2F)C[C@H]1C(=O)O"
endpoint_name = "IC50"
modifier = ">"
measured = 100

[[record]]
molecule = "CSc1ccccc1N1C(=O)Cc2ccccc2C1=O"
endpoint_name = "IC50"
modifier = "="
measured = 3.18

[[record]]
molecule = "COC(=O)[C@@H]1C[C@H](N=[N+]=[N-])CN1C(=O)/C=C/c1ccc(OC)c(OC)c1"
endpoint_name = "IC50"
modifier = "="
measured = 71.3

[[record]]
molecule = "COC(=O)[C@@H]1C[C@@H](OS(=O)(=O)c2ccc(C)cc2)CN1C(C)=O"
endpoint_name = "IC50"
modifier = "="
measured = 30.4

[[record]]
molecule = "Cc1cccc(C)c1N1C(=O)c2cccc(N)c2C1=O"
endpoint_name = "IC50"
modifier = ">"
measured = 376

[[record]]
molecule = "COC(=O)[C@@H]1C[C@@H](OS(C)(=O)=O)CN1S(C)(=O)=O"
endpoint_name = "IC50"
modifier = "="
measured = 31.6

[[record]]
molecule = "CCc1cccc(CC)c1N1C(=O)c2ccc([N+](=O)[O-])cc2C1=O"
endpoint_name = "IC50"
modifier = ">"
measured = 308

[[record]]
molecule = "CC(C)c1ccccc1N1C(=O)Cc2ccccc2C1=O"
endpoint_name = "IC50"
modifier = "="
measured = 194

[[record]]
molecule = "COC(=O)[C@@H]1C[C@H](NC(=O)c2cc(OC)c(OC)c(OC)c2)CN1C(C)=O"
endpoint_name = "IC50"
modifier = "="
measured = 98.4

[[record]]
molecule = "Cc1cccc(C)c1N1C(=O)c2ccccc2C1=O"
endpoint_name = "IC50"
modifier = ">"
measured = 398

[[record]]
molecule = "COc1cccc(/C=N/NC(=O)Cn2c(=O)c(C)nc3ccccc32)c1O"
endpoint_name = "IC50"
modifier = "="
measured = 80.9

[[record]]
molecule = "NC1Cc2ccccc2CCC1=O (stereo not given)"
endpoint_name = "IC50"
modifier = ">"
measured = 1000

[[record]]
molecule = "COC(=O)[C@@H]1C[C@@H](OS(=O)(=O)c2ccccc2)CN1S(=O)(=O)c1ccccc1"
endpoint_name = "IC50"
modifier = "="
measured = 47.3

[[record]]
molecule = "COC(=O)[C@@H]1C[C@H](NC(=O)/C=C/c2ccccc2)CN1C(=O)CCc1ccc(OC)c(OC)c1"
endpoint_name = "IC50"
modifier = "="
measured = 233

[[record]]
molecule = "Cc1cccc(C)c1N1C(=O)c2cccc(O)c2C1=O"
endpoint_name = "IC50"
modifier = "="
measured = 265

[[record]]
molecule = "O=C1Cc2ccccc2C(=O)N1c1ccccc1"
endpoint_name = "IC50"
modifier = "="
measured = 395

[[record]]
molecule = "CC[C@H](N[C@@H](CCc1ccccc1)C(=O)O)C(=O)N1C[C@@H](NC(=O)C[C@H](N)Cc2cc(F)c(F)cc2F)C[C@H]1C(=O)O"
endpoint_name = "IC50"
modifier = ">"
measured = 100

